Every entry's value here was drawn from PubChem BioAssay AID2060615.

test system: 496974-208-R-J2-PDC complex spheroids, growth % test/control; experiment: Anticancer human tumor 496974-208-R-J2-PDC patient-derived pancreatic carcinoma cell line growth inhibition [CLK]; conditions: second compound 3.16 µM; first compound 0.3 µM; active means viability on the fitted dose curve at most 10% of control; inactive means the rest
Valid outcomes are listed here; reply with one: active, inactive

>>> assigned_class("CC(C)CC(NC(=O)C(Cc1ccccc1)NC(=O)c1cnccn1)B(O)O (stereo not given) + CN1CCN(c2cc(C(=O)Nc3cc4cc(-c5cnn(C)c5)ccc4cn3)ccn2)CC1")
"active"
>>> assigned_class("NC(=O)C(=Cn1cnc(-c2cc(C(F)(F)F)cc(C(F)(F)F)c2)n1)c1cncnc1 + CN1CCN(c2cc(C(=O)Nc3cc4cc(-c5cnn(C)c5)ccc4cn3)ccn2)CC1")
"active"
>>> assigned_class("C=CC(=O)Nc1cc(Nc2nccc(-c3cn(C)c4ccccc34)n2)c(OC)cc1N(C)CCN(C)C + CN1CCN(c2cc(C(=O)Nc3cc4cc(-c5cnn(C)c5)ccc4cn3)ccn2)CC1")
"active"
>>> assigned_class("C=CC(=O)Nc1cc(Nc2nccc(-c3cn(C)c4ccccc34)n2)c(OC)cc1N(C)CCN(C)C + CNC(=O)c1ccc(Nc2nc(OC3CCCC3)c3c(-c4ccc5nc(C)oc5c4)c[nH]c3n2)c(OC)c1")
"inactive"

Kindly consider the entry below.
Status in this test for NC(=O)C(=Cn1cnc(-c2cc(C(F)(F)F)cc(C(F)(F)F)c2)n1)c1cncnc1 + CNC(=O)c1ccc(Nc2nc(OC3CCCC3)c3c(-c4ccc5nc(C)oc5c4)c[nH]c3n2)c(OC)c1 ?
inactive

----------
tested on: 496974-208-R-J2-PDC complex spheroids, growth % test/control; assay: Anticancer human tumor 496974-208-R-J2-PDC cell line growth inhibition [CLK]; settings: curve of first compound; second compound 10 µM;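 further: spheroids exposed to the drugs for 7 days before readout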
Quick reference: IC50 of the listed items.
Give the value, in units of µM, as a plain number.

>>> measured_value("O=c1[nH]cc(F)c(=O)[nH]1 + CNC(=O)c1ccc(Nc2nc(OC3CCCC3)c3c(-c4ccc5nc(C)oc5c4)c[nH]c3n2)c(OC)c1")
1.21

Below: the item to evaluate.
Value lookup for IC50; key = CC1COCCN1c1cc(C2(S(C)(=N)=O)CC2)nc(-c2ccnc3[nH]ccc23)n1 (stereo not given) + CNC(=O)c1ccc(Nc2nc(OC3CCCC3)c3c(-c4ccc5nc(C)oc5c4)c[nH]c3n2)c(OC)c1
0.971

----------
pIC50 values by entry
system: 496974-208-R-J2-PDC complex spheroids, growth % test/control; assay: Anticancer human tumor 496974-208-R-J2-PDC cell line growth inhibition [CLK]; details: curve of first compound; second compound 1 µM;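 further: spheroids exposed to the drugs for 7 days before readout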
Keep it numeric: pIC50 is minus log10 of the concentration in mol/L.

>>> measured_value("CCc1c2c(nc3ccc(O)cc13)-c1cc3c(c(=O)n1C2)COC(=O)[C@]3(O)CC + CNC(=O)c1ccc(Nc2nc(OC3CCCC3)c3c(-c4ccc5nc(C)oc5c4)c[nH]c3n2)c(OC)c1")
7.95

Below: the item to evaluate.
Give the measured pIC50 of COc1c(OCCCN2CCOCC2)ccc2c3n(c(=NC(=O)c4cnc(N)nc4)nc12)CCN3 + CNC(=O)c1ccc(Nc2nc(OC3CCCC3)c3c(-c4ccc5nc(C)oc5c4)c[nH]c3n2)c(OC)c1 .
8.10

----------
system: 496974-208-R-J2-PDC complex spheroids, growth % test/control; assay: Anticancer human tumor 496974-208-R-J2-PDC cell line growth inhibition [CLK]; details: second compound 10 µM; first compound 0.3 µM; stronger effect = lower value;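 further: spheroids exposed to the drugs for 7 days before readout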;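 on viability, T/C: 100% = DMSO vehicle control wells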
Param label: returns satisfied when viability, T/C < 3%, returns not satisfied otherwise, including exact equality.

Look over these answered cases.
>>> assigned_class("C=CC(=O)Nc1cc(Nc2nccc(-c3cn(C)c4ccccc34)n2)c(OC)cc1N(C)CCN(C)C + CNC(=O)c1ccc(Nc2nc(OC3CCCC3)c3c(-c4ccc5nc(C)oc5c4)c[nH]c3n2)c(OC)c1")
"not satisfied"
>>> assigned_class("NC(=O)C(=Cn1cnc(-c2cc(C(F)(F)F)cc(C(F)(F)F)c2)n1)c1cncnc1 + CNC(=O)c1ccc(Nc2nc(OC3CCCC3)c3c(-c4ccc5nc(C)oc5c4)c[nH]c3n2)c(OC)c1")
"not satisfied"
>>> assigned_class("NC(=O)C(=Cn1cnc(-c2cc(C(F)(F)F)cc(C(F)(F)F)c2)n1)c1cncnc1 + CN1CCN(c2cc(C(=O)Nc3cc4cc(-c5cnn(C)c5)ccc4cn3)ccn2)CC1")
"satisfied"

Now consider a different compound.
Decide: viability, T/C of CC(C)CC(NC(=O)C(Cc1ccccc1)NC(=O)c1cnccn1)B(O)O (stereo not given) + CN1CCN(c2cc(C(=O)Nc3cc4cc(-c5cnn(C)c5)ccc4cn3)ccn2)CC1 strictly below 3%?
satisfied

----------
system: 496974-208-R-J2-PDC complex spheroids, growth % test/control; test: Anticancer human tumor 496974-208-R-J2-PDC cell line growth inhibition [CLK]; details: curve of first compound; second compound 1 µM;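 further: spheroids exposed to the drugs for 7 days before readout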
The compounds listed here are annotated with their IC50.

Example cases with answers are listed next.
>>> measured_value("COc1cccc2c1C(=O)c1c(O)c3c(c(O)c1C2=O)CC(O)(C(=O)CO)CC3OC1CC(N)C(O)C(C)O1 (stereo not given) + CN1CCN(c2cc(C(=O)Nc3cc4cc(-c5cnn(C)c5)ccc4cn3)ccn2)CC1")
"< 31.6 nM"
>>> measured_value("CC1COCCN1c1cc(C2(S(C)(=N)=O)CC2)nc(-c2ccnc3[nH]ccc23)n1 (stereo not given) + CN1CCN(c2cc(C(=O)Nc3cc4cc(-c5cnn(C)c5)ccc4cn3)ccn2)CC1")
"< 31.6 nM"
>>> measured_value("C=CC(=O)N1CCN(c2nc(=O)n(-c3c(C)ccnc3C(C)C)c3nc(-c4c(O)cccc4F)c(F)cc23)C(C)C1 (stereo not given) + CNC(=O)c1ccc(Nc2nc(OC3CCCC3)c3c(-c4ccc5nc(C)oc5c4)c[nH]c3n2)c(OC)c1")
"> 10000 nM"
>>> measured_value("Nc1ccccc1NC(=O)c1ccc(CNC(=O)OCc2cccnc2)cc1 + CN1CCN(c2cc(C(=O)Nc3cc4cc(-c5cnn(C)c5)ccc4cn3)ccn2)CC1")
"< 31.6 nM"

Next, consider the following compound.
Item CC(C)CC(NC(=O)C(Cc1ccccc1)NC(=O)c1cnccn1)B(O)O (stereo not given) + CN1CCN(c2cc(C(=O)Nc3cc4cc(-c5cnn(C)c5)ccc4cn3)ccn2)CC1 with 496974-208-R-J2-PDC complex spheroids, growth % test/control - IC50?
< 0.949 nM

----------
system: 496974-208-R-J2-PDC complex spheroids, growth % test/control; assay: Anticancer human tumor 496974-208-R-J2-PDC cell line growth inhibition [CLK]; details: second compound 3.16 µM; first compound 1 µM; stronger effect = lower value;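 further: spheroids exposed to the drugs for 7 days before readout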;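 on viability, T/C: 100% = DMSO vehicle control wells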
API: label(entry) gives yes if the entry's viability, T/C is strictly smaller than 50%; on equality or larger values it gives no.

Worked cases, answers included:
>>> assigned_class("C=CC(=O)N1CCN(c2nc(=O)n(-c3c(C)ccnc3C(C)C)c3nc(-c4c(O)cccc4F)c(F)cc23)C(C)C1 (stereo not given) + CNC(=O)c1ccc(Nc2nc(OC3CCCC3)c3c(-c4ccc5nc(C)oc5c4)c[nH]c3n2)c(OC)c1")
"no"
>>> assigned_class("CC(Nc1ccc2c(c1)OCCn1cc(N3C(=O)OCC3C(F)F)nc1-2)C(N)=O (stereo not given) + CN1CCN(c2cc(C(=O)Nc3cc4cc(-c5cnn(C)c5)ccc4cn3)ccn2)CC1")
"yes"
>>> assigned_class("O=c1[nH]cc(F)c(=O)[nH]1 + CNC(=O)c1ccc(Nc2nc(OC3CCCC3)c3c(-c4ccc5nc(C)oc5c4)c[nH]c3n2)c(OC)c1")
"no"
>>> assigned_class("CC(CO)NC(=O)c1cc(-c2ccc(Cl)cc2)nn(-c2cnn(C)c2)c1=O (stereo not given) + CNC(=O)c1ccc(Nc2nc(OC3CCCC3)c3c(-c4ccc5nc(C)oc5c4)c[nH]c3n2)c(OC)c1")
"no"

viability, T/C strictly < 50% for this molecule? CCc1c2c(nc3ccc(O)cc13)-c1cc3c(c(=O)n1C2)COC(=O)[C@]3(O)CC + CNC(=O)c1ccc(Nc2nc(OC3CCCC3)c3c(-c4ccc5nc(C)oc5c4)c[nH]c3n2)c(OC)c1
yes

----------
Tested on: 496974-208-R-J2-PDC complex spheroids, growth % test/control
Experiment: Anticancer human tumor 496974-208-R-J2-PDC cell line growth inhibition [CLK];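 further: spheroids exposed to the drugs for 7 days before readout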;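 on viability, T/C: 100% = DMSO vehicle control wells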
Details: second compound 0.0316 µM; first compound 10 µM; stronger effect = lower value
From the text: A high-throughput screen of multi-cell type tumor spheroids was designed to identify active combinations of […] and targeted small molecules. Complex spheroids include a stromal component modeled by human endothelial cells (HUVEC) and fibroblasts modeled by human mesenchymal stem cells (MSCs). […] Compounds. […] If the clinical Cmax for an agent had not been determined, the highest concentration tested was 10 microM. […]
REPORTED PROPERTY: viability, T/C (%)
Numbers only; they are read as %.

// query viability, T/C value for entry CC1(C)CCC(CN2CCN(c3ccc(C(=O)NS(=O)(=O)c4ccc(NCC5CCOCC5)c([N+](=O)[O-])c4)c(Oc4cnc5[nH]ccc5c4)c3)CC2)=C(c2ccc(Cl)cc2)C1 + CN1CCN(c2cc(C(=O)Nc3cc4cc(-c5cnn(C)c5)ccc4cn3)ccn2)CC1
50.8
